// data source = patent US20220098319A1

# MAX MFI fold values compiled below
Target: T1, cynomolgus monkey CD73 (on transfected CHOK1 cells) (cynomolgus monkey, UniProt A0A2K5V5U7 27-549)
T1 construct: whole, on cells; also called CHOK1-cCD73; CHOK1-CCD73
T1 sequence: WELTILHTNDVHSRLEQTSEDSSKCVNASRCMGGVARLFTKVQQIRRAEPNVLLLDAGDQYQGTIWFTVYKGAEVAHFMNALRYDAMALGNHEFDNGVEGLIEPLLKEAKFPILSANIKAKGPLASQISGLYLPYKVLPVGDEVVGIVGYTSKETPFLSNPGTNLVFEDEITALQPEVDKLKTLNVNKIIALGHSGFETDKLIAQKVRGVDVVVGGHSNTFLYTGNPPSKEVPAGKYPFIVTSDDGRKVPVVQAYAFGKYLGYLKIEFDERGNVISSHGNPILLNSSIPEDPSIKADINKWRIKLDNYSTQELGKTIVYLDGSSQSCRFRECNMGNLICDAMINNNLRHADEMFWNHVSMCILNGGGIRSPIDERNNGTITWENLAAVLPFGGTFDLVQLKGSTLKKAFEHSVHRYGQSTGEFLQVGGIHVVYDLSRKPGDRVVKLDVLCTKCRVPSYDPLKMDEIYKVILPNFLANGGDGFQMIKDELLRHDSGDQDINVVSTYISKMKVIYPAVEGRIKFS
Experiment: FACS on CHOK1-cCD73 cells

>  <binder>
mab020xhIgG1TM (clone 24D6B4), mouse-human chimeric anti-CD73 antibody (antibody, V domains shown, also called mAb020 chimeric antibody) VH: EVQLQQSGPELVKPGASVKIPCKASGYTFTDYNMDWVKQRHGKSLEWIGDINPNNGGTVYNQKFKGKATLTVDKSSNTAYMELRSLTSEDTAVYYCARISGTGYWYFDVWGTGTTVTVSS VL: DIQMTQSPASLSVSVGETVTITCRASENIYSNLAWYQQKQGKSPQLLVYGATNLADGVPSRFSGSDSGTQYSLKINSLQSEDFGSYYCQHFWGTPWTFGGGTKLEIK

>  <MAX MFI fold (fold)>
124

$$$$
>  <binder>
mab042xhIgG1TM (clone 77B9A3), mouse-human chimeric anti-CD73 antibody (antibody, V domains shown, also called mAb042 chimeric antibody) VH: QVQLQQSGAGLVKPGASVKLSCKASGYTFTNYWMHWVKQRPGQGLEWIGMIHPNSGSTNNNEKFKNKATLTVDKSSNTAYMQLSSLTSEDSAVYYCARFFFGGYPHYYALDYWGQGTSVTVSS VL: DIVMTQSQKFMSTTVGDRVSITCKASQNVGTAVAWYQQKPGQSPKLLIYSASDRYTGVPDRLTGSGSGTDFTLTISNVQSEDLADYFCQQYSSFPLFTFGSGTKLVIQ

>  <MAX MFI fold (fold)>
132

$$$$
>  <binder>
mab065xhIgG1TM (clone 125A4E10), mouse-human chimeric anti-CD73 antibody (antibody, V domains shown, also called mAb065 chimeric antibody) VH: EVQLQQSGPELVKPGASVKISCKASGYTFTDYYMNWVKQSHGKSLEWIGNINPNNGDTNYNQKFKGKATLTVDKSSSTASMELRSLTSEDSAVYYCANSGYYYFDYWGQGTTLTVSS VL: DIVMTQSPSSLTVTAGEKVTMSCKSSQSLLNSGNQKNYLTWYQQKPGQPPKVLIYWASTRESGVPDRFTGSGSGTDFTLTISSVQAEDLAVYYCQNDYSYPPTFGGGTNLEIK

>  <MAX MFI fold (fold)>
173

$$$$
>  <binder>
mab041xhIgG1TM (clone 71E10B3), mouse-human chimeric anti-CD73 antibody (antibody, V domains shown, also called mAb041 chimeric antibody) VH: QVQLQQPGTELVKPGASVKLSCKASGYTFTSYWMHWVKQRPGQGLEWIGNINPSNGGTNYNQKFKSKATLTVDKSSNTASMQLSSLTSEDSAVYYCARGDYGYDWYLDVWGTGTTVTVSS VL: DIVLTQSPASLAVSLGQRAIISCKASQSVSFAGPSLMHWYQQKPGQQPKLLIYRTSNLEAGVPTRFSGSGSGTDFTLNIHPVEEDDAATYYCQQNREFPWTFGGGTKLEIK

>  <MAX MFI fold (fold)>
167

$$$$
